Sourced from ChEMBL document CHEMBL3301361

test: physchem; settings: octan-1-ol/water, pH 7.4, LogD7.4
Each record is given criterion met if its reported logD is strictly below 2. Records at or above 2 are given criterion not met.

Input: Is logD of CCCSc1c(C(=O)N(C)C2CCCCC2)cnn1-c1ccc(C(=O)O)cc1 strictly below 2?
Output: criterion met

Input: Does this molecule meet the criterion logD < 2? CNc1ncnc2c(CNc3cc(NC(=O)c4ccc5c(c4)OCCO5)ccc3C)cccc12
Output: criterion not met

Input: Does this molecule meet the criterion logD < 2? CCOC(=O)C1=C(C)NC(C)=C(C(C)=O)[C@H]1c1cccc2c(=O)cc(C)oc12
Output: criterion not met

Input: Is logD strictly under 2 for the entry NS(=O)(=O)Cc1noc2ccccc12 [ZONISAMIDE] ?
Output: criterion met

Input: I'd appreciate it if you could check whether Cc1ccc2c(c1)c(-c1ccnc3c(C#N)cccc13)c(C)n2CC(=O)O has logD smaller than 2.
Output: criterion met

Input: Dear reviewer, please state whether O=C1NC(=O)C(c2cnc3ccccn23)=C1c1cn2c3c(cccc13)CN(C(=O)N1CCOCC1)CC2 has logD strictly beneath 2.
Output: criterion met

Input: Consider CN1C(=O)CC(c2ccccc2)C1=O (stereo not given) [PHENSUXIMIDE] . Does its logD lie strictly below 2?
Output: criterion met

Input: Please let me know if O=c1[nH]c2c(O)ccc([C@@H](O)CNCCc3cccc(CNCCCc4ccccc4)c3)c2s1 shows logD below 2.
Output: criterion met

Input: Criterion: logD strictly below 2. Is it met by CN(C(=O)C1CCC1)C1CCN(CCC(c2ccccc2)c2ccccc2)CC1 ?
Output: criterion not met

Input: Record CCOC(=O)c1ccccc1-c1csc(NS(=O)(=O)c2ccc(Cl)cc2)n1 : is its logD strictly below 2?
Output: criterion not met

---

Kindly state pKa for each of the entries shown.
assay: physchem
I only need the number, thanks.

Input: // Input: CCn1nc(C(=O)O)c(=O)c2cc3c(cc21)OCO3 [CINOXACIN] . Output its pKa only.
Output: 4.36

Input: Tell me pKa reported for Nc1nc(-c2ccccc2)cc(=O)[nH]1
Output: 9.05

Input: Identify measured pKa associated with Cc1ccc(S(=O)(=O)Nc2c(C(=O)N[C@@H](C)C(C)(C)C)c(C)nn2C(C)C)cc1
Output: 4.5

Input: Return reported pKa. Input compound: CCCCNc1cc(C(=O)O)cc(S(N)(=O)=O)c1Oc1ccccc1 [BUMETANIDE]
Output: 3.49

Input: Output pKa of O=C(O)COc1cccc(N2CCC(CN3CCC(Oc4ccc(Cl)c(Cl)c4)CC3)CC2)c1
Output: 3.7

---

Consider the following compounds; for each one, report its logD.
assay: physchem; settings: octan-1-ol/water, pH 7.4
Provide a numeric answer; units are not to be included.

Input: Respond only with logD recorded for COc1ccc(C(CN2CCCC2)N(C)C(=O)Cc2ccc(Cl)c(Cl)c2)c(OC)c1 (stereo unspecified)
Output: 3.07

Input: Find the measured logD of CCC(CO)NCCNC(CC)CO (stereo unspecified) and report it.
Output: -1.42

Input: Let me know recorded logD for CS(=O)(=O)c1ccc2c(c1)N(CCN1CCC(NCc3ccc4c(n3)NC(=O)CO4)CC1)C(=O)CO2 , thanks.
Output: -0.51

Input: Annotate the compound CC(NC(=O)c1cc(O)nc2ccccc12)c1ccccc1 (stereo unspecified) with its measured logD.
Output: 2.2

Input: Give me measured logD, please, for this compound: CC(C)[C@@H]1N=C(c2ccccc2)c2ccccc2NC1=O
Output: 3.05

Input: Please report the measured logD for COc1ccc(-c2csc(NC(=O)c3c(C)noc3C)n2)cc1OC
Output: 3.16

---

assay: physchem; conditions: pH 7.4 buffer
attribute-measured: solubility thermodynamic (µM)
Hi! Could you send only the number? It should be in µM, unit omitted.

Input: Fill in solubility thermodynamic for record CNC(=O)c1cc(-c2ccccc2)sc1NC(N)=O
Output: 12

Input: Entry COc1cc2ncc(C(N)=O)c(Nc3ccccc3F)c2cc1OC needs its solubility thermodynamic filled in; supply it.
Output: 21.9

Input: Supply reported solubility thermodynamic belonging to this compound: Cc1ccc2c(c1)c(-c1ccnc3c(Cl)cccc13)c(C)n2CC(=O)O
Output: 1320

Input: Quick one: give measured solubility thermodynamic for CCN(C(=O)Cc1ccc(S(C)(=O)=O)cc1)C1CCN(CC[C@@H](c2ccccc2)C2CCN(S(=O)(=O)C(F)(F)F)CC2)CC1
Output: 56.2

Input: Report measured solubility thermodynamic; entry is COc1ccc(-c2cc3c(N[C@H]4CCCNC4)ncc(C(N)=O)c3s2)cc1
Output: 1050

Input: Return reported solubility thermodynamic. Input compound: COc1ccc(-c2c(-c3ccc(O)cc3O)n[nH]c2C)cc1
Output: 209

Input: Return solubility thermodynamic (reported value) for this compound: CCN(Cc1cc(C(F)(F)F)ccc1-c1cc(CC(=O)O)ccc1OC)C(=O)NCc1ccccc1
Output: 1380

Input: Note solubility thermodynamic for the compound shown: COc1cc2c(Nc3ccc(Br)cc3F)ncnc2cc1OC[C@@H]1CCCN(C)C1
Output: 170

Input: Determine from records and report solubility thermodynamic for COc1cc2ncnc(Nc3cc(NC(=O)c4ccnc(N5CCOCC5)c4)ccc3C)c2cc1OCCN1CCCCC1
Output: 813

Input: Give solubility thermodynamic for C[C@@H](Oc1cccc2ncnc(Nc3ccc(OCc4ccccn4)c(Cl)c3)c12)C(=O)N(C)C
Output: 6.2

---

test: physchem; conditions: octan-1-ol/water, pH 7.4, LogD7.4
attribute-measured: logD
Please reply with the number alone, leaving off any unit.

Input: Identify the reported logD for the following entry. CN[C@@H](C)C(=O)N[C@H](C(=O)N1CC[C@H]2CCN(CCc3ccccc3)C[C@H]21)C1CCCCC1
Output: 2.47

Input: Give the reported value of logD for this record: COc1ccc([C@]2(C#N)CC[C@@H](C(=O)O)CC2)cc1OC1CCCC1
Output: 0.76

Input: Determine from records and report logD for CC1CN(C(=O)c2ccccc2)c2ccccc2NC1=O (centres undefined)
Output: 1.73

Input: Find the measured logD of Cc1cn([C@H]2CCCN(Cc3ccc(C(=O)O)c(Oc4cccc(Br)c4)c3)C2)c(=O)[nH]c1=O and report it.
Output: -0.51

Input: Read the entry CCOC(=O)c1ccc(OCCC2(C#N)CCN(c3ccc(C)nn3)CC2)cc1 and write its reported logD.
Output: 3.54

Input: Determine its reported logD: CCOc1ccc2ccc(=O)oc2c1
Output: 2.2

Input: Supply logD value. Item: CCCCNc1nc(SCCC)nc2c1nnn2[C@@H]1C[C@H](CO)[C@@H](O)[C@H]1O
Output: 3.07

Input: Give the reported logD for this compound. Fc1cc(F)cc(-c2cc(N(CCCN3CCCCCC3)Cc3ccc4c(c3)OCO4)on2)c1
Output: 3.84

Input: For the compound Cc1cc(Nc2nc(NCc3cc(C)no3)ncc2Br)[nH]n1 , give its reported logD.
Output: 2.92

---

experiment: in vitro; settings: human, plasma, PPB
Non-standard residues stand in square brackets, D forms with d. Residues, ends and D or L forms follow the SMILES beside them. Dip = N[C@H](C(=O)O)C(c1ccccc1)c1ccccc1; Chg = N[C@H](C(=O)O)C1CCCCC1; NMeA = CN[C@@H](C)C(=O)O
Threshold rule: fraction unbound at 5 h greater than or equal to 0.06 is Criterion met; below that, Criterion not met.

Input: Exam item: decide whether the reported fraction unbound at 5 h for CC(=O)Nc1nc2c(Oc3cc(-c4ccc(C(F)(F)F)cc4)ncn3)cccc2s1 is at least 0.06.
Output: Criterion not met

Input: Please check the record O=C(Nc1cc(-c2ccncc2)c[nH]c1=O)[C@H](Cc1ccccc1)NC1(c2ccccn2)CC1 and state if its fraction unbound at 5 h is at or above 0.06.
Output: Criterion not met

Input: Check if fraction unbound at 5 h >= 0.06 (inclusive). Item: N#CCNC(=O)c1ccc(-c2ccnc(Nc3ccc(N4CCOCC4)cc3)n2)cc1
Output: Criterion met

Input: I'd appreciate it if you could say whether COc1ccc(-c2nc3c(OCC4CCNCC4)c(Br)cnc3[nH]2)cc1 has fraction unbound at 5 h at least equal to 0.06.
Output: Criterion met

Input: Confirm if fraction unbound at 5 h reported for the compound COc1ccc(-c2nc3c(NCCCNC(=O)c4cccnc4)c(Br)cnc3[nH]2)cc1 is 0.06 or above.
Output: Criterion not met

Input: Check the entry Cc1cnc(Nc2cc(N3CCOCC3)nc(N[C@@H](C)c3ncc(F)cn3)n2)s1 : does fraction unbound at 5 h equal or exceed 0.06?
Output: Criterion met

Input: Determine whether this compound has fraction unbound at 5 h no lower than 0.06: Cc1ccc(S(=O)(=O)N2N=Cc3ccccc3B2O)cc1
Output: Criterion met

Input: Hi, just wondering whether O=C(O)c1cccc(C(=O)N2CCC(N3CCC(Oc4ccc(Cl)c(Cl)c4)CC3)CC2)c1 shows fraction unbound at 5 h of 0.06 or higher.
Output: Criterion not met

Input: Is the recorded value of fraction unbound at 5 h equal to or greater than 0.06 for this compound? COc1cc(OC)c(S(=O)(=O)NCc2ccccc2N2CCC(CC(=O)O)CC2)cc1NC(=O)CCC(=O)O
Output: Criterion met

Input: Decide: fraction unbound at 5 h of O=C(O)COc1cccc(C(=O)N2CCC(N3CCC(Oc4ccc(Cl)c(Cl)c4)CC3)CC2)c1 >= 0.06?
Output: Criterion not met

Input: Hi team, for O=C(NCC12CC3CC(CC(C3)C1)C2)c1cc(CN2C[C@@H]3C[C@H]2CN3)ccc1Cl , is the recorded fraction unbound at 5 h at or above 0.06?
Output: Criterion met

Input: Threshold query (fraction unbound at 5 h >= 0.06) on CN[C@@H](C)C(=O)N[C@H](C(=O)N[C@H]1CCN(C(=O)c2ccccc2)C1)C1CCCCC1
Output: Criterion met

Input: Determine whether this compound has fraction unbound at 5 h no lower than 0.06: O=C1NC(=O)C(c2ccccc2)(c2ccccc2)N1
Output: Criterion met

Input: Say whether CN[C@@H](C)C(=O)N[C@H](C(=O)N1CCC[C@H]1C(=O)N[C@H](C(=O)OC)C(c1ccccc1)c1ccccc1)C1CCCCC1 (H-[NMeA][Chg]P[Dip]-OMe) shows fraction unbound at 5 h of 0.06 or more.
Output: Criterion met

Input: Check this compound for fraction unbound at 5 h at or above 0.06: CCOc1cc2ncc(C(N)=O)c(Nc3cccc(Cl)c3Cl)c2cc1N1CCN(C(C)=O)CC1
Output: Criterion met

Input: Evaluate C[C@H]1CN(c2cc(N(CCO)Cc3cccc4ccccc34)[nH]c(=O)n2)CCO1 : fraction unbound at 5 h at minimum 0.06?
Output: Criterion met

Input: Could you verify whether the entry C[C@@H]1CN(Cc2nnc(-c3cc(-c4cccc5[nH]ccc45)cc4[nH]ncc34)o2)C[C@H](C)O1 shows fraction unbound at 5 h of no less than 0.06?
Output: Criterion not met
